# systemUnderTest: human recombinant HDAC1 (Homo sapiens, UniProt Q13547)
# Sequence (Q13547 whole entry): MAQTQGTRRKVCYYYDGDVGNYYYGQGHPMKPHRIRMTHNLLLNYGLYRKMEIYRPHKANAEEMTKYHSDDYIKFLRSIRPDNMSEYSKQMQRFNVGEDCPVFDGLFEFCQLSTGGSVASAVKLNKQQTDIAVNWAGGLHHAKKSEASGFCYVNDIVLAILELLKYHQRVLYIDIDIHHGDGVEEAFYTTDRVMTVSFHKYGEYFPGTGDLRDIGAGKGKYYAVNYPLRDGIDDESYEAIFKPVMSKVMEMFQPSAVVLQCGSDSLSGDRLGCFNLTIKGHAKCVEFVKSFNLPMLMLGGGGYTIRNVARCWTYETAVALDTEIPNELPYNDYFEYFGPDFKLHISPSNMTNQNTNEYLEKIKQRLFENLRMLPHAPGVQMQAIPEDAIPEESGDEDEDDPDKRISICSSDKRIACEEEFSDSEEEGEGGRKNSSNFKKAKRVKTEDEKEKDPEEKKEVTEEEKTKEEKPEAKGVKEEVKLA
# assayInfo: HDAC1 enzyme activity inhibition assay (HDAC Fluorimetric Drug Discovery Kit)
# conditionDetails: 0.3 μg enzyme, 10 μM substrate, 30° C., 60 minutes
measurementType: IC50 (µM)

Would you please look over these solved cases?
O=C(OCCCS(=O)(=O)N(Cc1ccc(-c2nnc(C(F)F)o2)cc1)c1ccccc1)C(F)F | 80.4
O=S(=O)(CCN1CCN(CCCO)CC1)N(Cc1ccc(-c2nnc(C(F)F)o2)cc1)c1ccccc1 | 61.3
CCS(=O)(=O)N(Cc1ccc(-c2nnc(C(F)F)o2)cn1)c1ccc(Cl)c(C)c1 | 86.2
COc1cccc(N(Cc2ccc(-c3nnc(C(F)(F)F)o3)cc2F)S(C)(=O)=O)c1 | 7.81
O=S(=O)(CCCN1CCCC1)N(Cc1ccc(-c2nnc(C(F)F)o2)cn1)c1ccccc1 | 29.4

P. CS(=O)(=O)N(Cc1ccc(-c2nnc(C(F)(F)F)o2)cc1)c1ccccc1
Q. Cc1cccc(N(Cc2ccc(-c3nnc(C(F)F)o3)cn2)S(=O)(=O)C2CCN([C@H]3CC[C@H](C(F)(F)F)CC3)CC2)c1
// query Which entry shows the lesser value of IC50 here, P or Q ? Respond using the label that marks the chosen record.
// result P

I. CS(=O)(=O)N(Cc1ccc(-c2nnc(C(F)(F)F)o2)cc1F)c1cccc(Br)c1
II. CS(=O)(=O)N1CC(N2CCC(S(=O)(=O)N(Cc3ccc(-c4nnc(C(F)F)o4)cn3)c3ccc(F)c(Cl)c3)CC2)C1
III. CS(=O)(=O)N(Cc1ccc(-c2nnc(C(F)(F)F)o2)cn1)c1ccc(F)c(Cl)c1
IV. CS(=O)(=O)N(Cc1ccc(-c2nnc(C(F)F)o2)c(F)c1)c1ccccc1
// query Task field, ranking: reported IC50, descending order. Please respond by ranking the labels in the order requested.
// result II, I, III, IV

###

# systemUnderTest: human recombinant HDAC6 (Homo sapiens, UniProt Q9UBN7)
# Sequence (Q9UBN7 whole entry): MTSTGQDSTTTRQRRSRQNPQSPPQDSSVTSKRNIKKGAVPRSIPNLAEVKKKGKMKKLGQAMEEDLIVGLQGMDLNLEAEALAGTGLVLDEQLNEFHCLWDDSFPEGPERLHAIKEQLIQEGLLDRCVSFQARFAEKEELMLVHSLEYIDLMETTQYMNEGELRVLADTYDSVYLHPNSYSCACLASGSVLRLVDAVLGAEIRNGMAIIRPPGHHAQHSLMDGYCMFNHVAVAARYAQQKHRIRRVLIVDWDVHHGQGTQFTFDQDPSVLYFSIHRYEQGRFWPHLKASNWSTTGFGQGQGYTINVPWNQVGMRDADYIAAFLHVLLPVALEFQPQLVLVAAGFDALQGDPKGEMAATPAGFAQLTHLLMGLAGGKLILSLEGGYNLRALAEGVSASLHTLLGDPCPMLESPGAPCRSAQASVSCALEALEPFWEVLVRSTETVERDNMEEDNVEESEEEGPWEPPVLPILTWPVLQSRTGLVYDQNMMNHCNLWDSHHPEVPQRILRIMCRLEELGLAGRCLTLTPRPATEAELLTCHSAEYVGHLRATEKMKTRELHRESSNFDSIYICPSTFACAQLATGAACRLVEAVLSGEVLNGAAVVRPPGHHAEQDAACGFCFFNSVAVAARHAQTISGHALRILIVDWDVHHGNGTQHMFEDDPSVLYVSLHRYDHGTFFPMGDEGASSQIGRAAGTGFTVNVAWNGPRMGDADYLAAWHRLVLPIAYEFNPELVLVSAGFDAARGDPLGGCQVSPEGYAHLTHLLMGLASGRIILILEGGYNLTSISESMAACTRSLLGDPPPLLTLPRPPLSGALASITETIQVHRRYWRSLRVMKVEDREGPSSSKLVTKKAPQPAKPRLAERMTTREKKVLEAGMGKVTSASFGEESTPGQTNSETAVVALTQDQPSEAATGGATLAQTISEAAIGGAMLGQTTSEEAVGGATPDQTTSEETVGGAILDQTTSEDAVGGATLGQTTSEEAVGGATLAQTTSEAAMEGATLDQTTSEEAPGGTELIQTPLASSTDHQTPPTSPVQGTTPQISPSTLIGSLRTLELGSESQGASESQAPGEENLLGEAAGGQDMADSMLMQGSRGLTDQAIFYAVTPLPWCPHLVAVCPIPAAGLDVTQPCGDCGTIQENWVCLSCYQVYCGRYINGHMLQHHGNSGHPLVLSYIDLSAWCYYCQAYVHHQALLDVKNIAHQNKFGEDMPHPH
# assayInfo: HDAC6 enzyme activity inhibition assay (HDAC Fluorimetric Drug Discovery Kit)
# conditionDetails: same protocol as the HDAC1 enzyme activity test
measurementType: IC50 (nM)

Would you please look over these solved cases?
O=S(=O)(CCn1ccnc1)N(Cc1ccc(-c2nnc(C(F)F)o2)cc1)c1ccccc1 [Compound 11816] | 37.1
CS(=O)(=O)N(Cc1ccc(-c2nnc(C(F)(F)F)o2)cc1F)c1cccnc1 [Compound 11089] | 50
CS(=O)(=O)N(Cc1ccc(-c2nnc(C(F)F)o2)cc1F)c1cncc(F)c1 [Compound 11284] | 27
CC(C)(C)OC(=O)N(C(=O)C(F)F)C1CCN(CCS(=O)(=O)N(Cc2ccc(-c3nnc(C(F)F)o3)cc2)c2ccccc2)CC1 [Compound 11677] | 57
CN1CCCN(CCS(=O)(=O)N(Cc2ccc(-c3nnc(C(F)F)o3)cc2)c2ccccc2)CC1 [Compound 11737] | 69.4

a. COc1cc(-c2nnc(C(F)(F)F)o2)ccc1CN(c1cccnc1)S(C)(=O)=O [Compound 11129]
b. COc1ccc(N(Cc2ccc(-c3nnc(C(F)F)o3)cn2)S(C)(=O)=O)cc1 [Compound 11346]
c. O=S(=O)(C1CCN(C2CC(F)C2)CC1)N(Cc1ccc(-c2nnc(C(F)F)o2)cn1)c1cccc(Cl)c1 (stereo not drawn) [Compound 11841]
// query Rank items: key IC50, increasing. Please respond by ranking the labels in the order requested.
// result b, c, a

P. CS(=O)(=O)N(Cc1cnc(-c2nnc(C(F)(F)F)o2)cn1)c1ccccc1 [Compound 11573]
Q. CCS(=O)(=O)N(Cc1ccc(-c2nnc(C(F)F)o2)cc1F)c1cccc(CN2CCN(C(C)=O)CC2)c1 [Compound 11403]
R. NC(=O)[C@@H]1CCCN1CCS(=O)(=O)N(Cc1ccc(-c2nnc(C(F)F)o2)cc1)c1ccccc1 [Compound 11812]
S. O=S(=O)(CCN1CCC(Cc2ccccc2)CC1)N(Cc1ccc(-c2nnc(C(F)F)o2)cc1)c1ccccc1 [Compound 11762]
// query Task field, ranking: reported IC50, descending order. Please respond by ranking the labels in the order requested.
// result P, S, Q, R
(P: 2290 nM, S: 1000 nM, Q: 78 nM, R: 32.9 nM)

###

# systemUnderTest: human recombinant HDAC6 (Homo sapiens)
# assayInfo: HDAC6 enzyme activity inhibition assay (HDAC Fluorimetric Drug Discovery Kit)
# conditionDetails: same protocol as the HDAC1 enzyme activity test
measurementType: IC50 (nM)

Would you please look over these solved cases?
CCC(C)S(=O)(=O)N(Cc1ccc(-c2nnc(C(F)F)o2)cc1F)c1ccccc1 (stereo not shown) [Compound 11230] | 33
Cc1ccccc1N(Cc1ccc(-c2nnc(C(F)F)o2)cc1F)S(C)(=O)=O [Compound 11249] | 37

a. O=S(=O)(C1CCN([C@H]2CC[C@@H](F)CC2)CC1)N(Cc1ccc(-c2nnc(C(F)F)o2)cn1)c1cccc(Cl)c1 [Compound 11728]
b. O=S(=O)(CCN1CCN(c2noc3ccccc23)CC1)N(Cc1ccc(-c2nnc(C(F)F)o2)cc1)c1ccccc1 [Compound 11844]
c. CN1CCc2nc(N(Cc3ccc(-c4nnc(C(F)F)o4)cc3)S(C)(=O)=O)sc2C1 [Compound 11750]
d. CS(=O)(=O)N(Cc1ccc(-c2nnc(C(F)(F)F)o2)cn1)c1cccc(C(F)(F)F)c1 [Compound 11323]
e. CCS(=O)(=O)N(Cc1ccc(-c2nnc(C(F)F)o2)cn1)c1ccc(F)c(C)c1 [Compound 11461]
// query Task field, ranking: reported IC50, descending order. Please respond by ranking the labels in the order requested.
// result c, b, d, a, e

###

# systemUnderTest: human recombinant HDAC6 (Homo sapiens, UniProt Q9UBN7)
# Construct: purchased Calbiochem 382180
# assayInfo: HDAC6 enzyme activity inhibition assay (HDAC Fluorimetric Drug Discovery Kit)
# Assay type: biochemical
# conditionDetails: HDAC1 vs HDAC6
measurementType: HDAC6 selectivity (fold)

Would you please look over these solved cases?
Cc1cccc(N(Cc2ccc(-c3nnc(C(F)F)o3)cc2)S(=O)(=O)C2CCN([C@H]3CC[C@H](F)CC3)CC2)c1 | 306
O=S(=O)(C1CCN(C2CCC2)CC1)N(Cc1ccc(-c2nnc(C(F)F)o2)cc1)c1ccccc1 | 1849
O=S(=O)(CCN1CCC(c2ccc(F)cc2)CC1)N(Cc1ccc(-c2nnc(C(F)F)o2)cc1)c1ccccc1 | 284
COCC(C)CS(=O)(=O)N(Cc1ccc(-c2nnc(C(F)F)o2)cc1F)c1ccccc1 (stereo not drawn) | 2128
NC(=O)[C@@H]1CCCN1CCS(=O)(=O)N(Cc1ccc(-c2nnc(C(F)F)o2)cc1)c1ccccc1 | 3039

P. CS(=O)(=O)N(Cc1ccc(-c2nnc(C(F)(F)F)o2)cc1F)c1cccc(C(F)(F)F)c1
Q. CC(C)(O)CN1CCC(S(=O)(=O)N(Cc2ccc(-c3nnc(C(F)F)o3)cc2F)c2ccccc2)CC1
// query Which entry shows the lesser value of HDAC6 selectivity (fold) here, P or Q ? Respond using the label that marks the chosen record.
// result P
(P: 559 fold, Q: 4545 fold)

P. CC(C)n1ncc2ccc(N(Cc3ccc(-c4nnc(C(F)F)o4)cc3)S(C)(=O)=O)cc21
Q. CC(C)c1nc2ccc(N(Cc3ccc(-c4nnc(C(F)F)o4)cc3)S(C)(=O)=O)cc2s1
// query When their HDAC6 selectivity (fold) values are compared, which is larger, P or Q ? Respond using the label that marks the chosen record.
// result P

P. CS(=O)(=O)N(Cc1ccc(-c2nnc(C(F)F)o2)cn1)c1cccc(F)c1
Q. Cc1cccc(N(Cc2ccc(-c3nnc(C(F)F)o3)cc2)S(=O)(=O)C2CCN(C3CCC(F)(F)CC3)CC2)c1
R. CCS(=O)(=O)N(Cc1ccc(-c2nnc(C(F)F)o2)cc1F)c1cccc2c1cnn2C
// query Rank items: key HDAC6 selectivity (fold), increasing. Please respond by ranking the labels in the order requested.
// result Q, R, P

1. O=S(=O)(CCN1CCN(c2ccc(F)cc2)CC1)N(Cc1ccc(-c2nnc(C(F)F)o2)cc1)c1ccccc1
2. CCS(=O)(=O)N(Cc1ccc(-c2nnc(C(F)F)o2)cn1)c1ccc(Cl)c(C)c1
// query When their HDAC6 selectivity (fold) values are compared, which is larger, 1 or 2 ? Respond using the label that marks the chosen record.
// result 2

###

# systemUnderTest: human recombinant HDAC6 (Homo sapiens)
# assayInfo: HDAC6 enzyme activity inhibition assay (HDAC Fluorimetric Drug Discovery Kit)
# conditionDetails: same protocol as the HDAC1 enzyme activity test
measurementType: IC50 (nM)

Would you please look over these solved cases?
Cc1cccc(N(Cc2ccc(-c3nnc(C(F)F)o3)cc2)S(=O)(=O)C2CCN(C3CCC(F)(F)CC3)CC2)c1 [Compound 11694] | 464
O=S(=O)(CCN1Cc2ccccc2C1)N(Cc1ccc(-c2nnc(C(F)F)o2)cc1)c1ccccc1 [Compound 11756] | 378
CC(C)(C)OC(=O)N1CC2(CCN(CCS(=O)(=O)N(Cc3ccc(-c4nnc(C(F)F)o4)cc3)c3ccccc3)CC2)C1 [Compound 11814] | 1130
O=S(=O)(CCN1CCC[C@@H]1CO)N(Cc1ccc(-c2nnc(C(F)F)o2)cc1)c1ccccc1 [Compound 11803] | 21.8
Cc1cccc(N(Cc2ccc(-c3nnc(C(F)F)o3)cn2)S(=O)(=O)C2CCN(C3CCC(F)(F)CC3)CC2)c1 [Compound 11687] | 107
O=S(=O)(C1CCN(C2CCC2)CC1)N(Cc1ccc(-c2nnc(C(F)F)o2)cn1)c1ccccc1 [Compound 11794] | 45.6
CCS(=O)(=O)N(Cc1ccc(-c2nnc(C(F)(F)F)o2)cc1F)c1ccccc1 [Compound 11153] | 126
CS(=O)(=O)N(Cc1ccccn1)Cc1ccc(-c2nnc(C(F)(F)F)o2)cc1F [Compound 11044] | 331
CCS(=O)(=O)N(Cc1ccc(-c2nnc(C(F)F)o2)cc1F)c1cccc2cnn(C)c12 [Compound 11522] | 24
CS(=O)(=O)N(Cc1ncc(-c2nnc(C(F)F)o2)cn1)c1ccccc1 [Compound 11564] | 21

a. Cc1cccc(N(Cc2ccc(-c3nnc(C(F)F)o3)cn2)S(=O)(=O)C2CCN([C@H]3CC[C@H](C(F)(F)F)CC3)CC2)c1 [Compound 11690]
b. CS(=O)(=O)N(Cc1ccc(-c2nnc(C(F)F)o2)cn1)c1ccc2c(c1)CN(C1COC1)C2 [Compound 11735]
c. CCC(=O)N1CC(N2CCC(S(=O)(=O)N(Cc3ccc(-c4nnc(C(F)F)o4)cn3)c3cccc(Cl)c3)CC2)C1 [Compound 11782]
// query Rank items: key IC50, increasing. Please respond by ranking the labels in the order requested.
// result c, a, b

1. CS(=O)(=O)N(Cc1ccc(-c2nnc(C(F)F)o2)cc1F)c1ccccc1 [Compound 11170]
2. CS(=O)(=O)N(Cc1ccc(-c2nnc(C(F)F)o2)cn1)CC12CC3CC(CC(C3)C1)C2 [Compound 11669]
// query When their IC50 values are compared, which is larger, 1 or 2 ? Respond using the label that marks the chosen record.
// result 2
(2: 111 nM, 1: 14 nM)
